Cited source for all entries: patent US20040018971A1

- assayTarget: HLA-A*3301 (human)
- methodSummary: inhibition of 125I probe peptide binding to purified HLA
reportedProperty: pIC50
Numbers only, as −log10 of the molar value.

Example entries and their recorded answers appear below.
binder	pIC50
CVNCSQFLR (synthetic peptide) [Her2/neu.528]	7.30
ISWLGLRSLR (synthetic peptide) [Her2/neu.450]	6.65
IVKGGVLIQK (synthetic analog peptide) [Her2/neu.148.V2K10]	5.18
IVWKDIFHK (synthetic analog peptide) [Her2/neu.167.V2]	6.07
HVVPWDQLFR (synthetic analog peptide) [Her2/neu.478.V2]	6.71
HTVPWDQLFR (synthetic peptide) [Her2/neu.478]	7.06
ILKGGVLIQR (synthetic peptide) [Her2/neu.148]	6.92

From here, focus on the item given below.
The binder listed as BVNBSQFLR (B at positions 1 and 4 = alpha-amino butyric acid (in place of cysteine), synthetic analog peptide; also called BVNBSQFLR) [Her2/neu.528.B1B4] shows pIC50 equal to 7.24
